These measurements were taken from patent US11117865B2.

# MEASURED_ON: BRDT (BD2) (Homo sapiens (Human), UniProt Q58F21)
# EXPERIMENTAL_PROTOCOL: Bromodomain binding affinity
READOUT: IC50 (nM)

[ask] Would you kindly share the measured IC50 for O=C(Nc1ccc(C(F)(F)F)cc1)Nc1ccc(S(=O)(=O)N2CCC[C@H]2CN2CCC(O)CC2)cc1 [ZL0591] ?
[reply] 1940

P. O=C(Nc1ccc(C(F)(F)F)cc1)Nc1ccc(S(=O)(=O)N2CCCC2CN2CCOCC2)cc1 (stereo in doubt) [ZL0590]
Q. COc1cc(OC)c2c(=O)[nH]c(-c3cc(C)c(OCCO)c(C)c3)nc2c1 [RVX-208, reference compound]
[ask] Could you please tell me which of these two has the higher IC50: P or Q ? Which one? Tell me its label.
[reply] P
